# testedSystem: T1, 4H967-bA
# T1 chain: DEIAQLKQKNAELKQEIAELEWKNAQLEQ
# testName: two-hybrid library CCNG1;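 further: natural log of median RNA to DNA barcode read ratio; higher means stronger binding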
endpoint: interaction score

INSERT INTO assay_data (binder, endpoint, measured) VALUES
  ('DEIAQLKQKNAELEQEIAELKWENAQLKQ [4H908-bA]', 'interaction score', -0.532);

a. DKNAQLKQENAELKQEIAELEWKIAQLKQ [4H3782-bA]
b. DEIAQLKQKIAELKQKNAELEWENAQLEQ [4H883-bA]
c. DKNAQLKQEIAELEQENAELEWKIAQLKQ [4H3606-bA]
d. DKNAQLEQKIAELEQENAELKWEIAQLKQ [4H3354-bA]
Query string: Rank descending by interaction score. Order the labels as requested and give them as your answer.
Result string: c, a, d, b
(c: 0.947, a: 0.0169, d: -0.407, b: -1.69)
